assay_notes: Pharmacokinetics in rats (exposure, AUC)
Format: in vivo, male Sprague Dawley rats
measurement_conditions: male, Sprague Dawley, rat, plasma, po, 5 mg/kg
Field 'label' (enum: yes / no). Set to yes when AUC is strictly under 2000 ng·h/mL; else no.

molecule: Cc1ccc(NC(=O)c2cccc(C(F)(F)F)c2)cc1-c1ccc2c([C@H](C)O)n[nH]c2n1 [Compound 55]
category: yes
//
molecule: COc1cc(OC)cc(C(=O)Nc2cnc(C)c(-c3ccc4c(C)n[nH]c4n3)c2)c1 [Compound 17]
category: yes
//
molecule: COc1cc(OC)cc(C(=O)Nc2ccc(C)c(-c3ccc4c(C5(O)CC5)n[nH]c4n3)c2)c1 [Compound 29]
category: no
//
molecule: Cc1ccc(NC(=O)c2cccc(C(F)(F)F)c2)cc1-c1ccc2c(C(O)CN3CCOCC3)n[nH]c2n1 (centres unmarked) [Compound 2]
category: yes
//
molecule: Cc1ccc(NC(=O)c2cccc(C(F)(F)F)c2)cc1-c1ccc2c(C(C)O)n[nH]c2n1 (centres unmarked) [Compound 35]
category: no

Determine whether this molecule shows AUC lower than 2000 ng·h/mL (ties excluded): Cc1ccc(NC(=O)c2cccc(C(F)(F)F)c2)cc1-c1cc(C)c2c(N)n[nH]c2n1 [Compound A]
yes

Determine whether this molecule shows AUC lower than 2000 ng·h/mL (ties excluded): COc1cc(OC)cc(C(=O)Nc2ccc(C)c(-c3ccc4c(C(C)O)n[nH]c4n3)c2)c1 (centres unmarked) [Compound 9]
no

----------
assay_notes: Pharmacokinetics in rats (exposure, AUC)
Format: in vivo, male Sprague Dawley rats
measurement_conditions: male, Sprague Dawley, rat, plasma, po, 5 mg/kg, formulated in methylcellulose 5% in water
result_type: AUC (ng·h/mL)
Numbers only, in ng·h/mL.

Entry under test: COc1cc(OC)cc(C(=O)Nc2ccc(C)c(-c3ccc4c(C(O)CN5CCOCC5)n[nH]c4n3)c2)c1 (stereo not shown) . Its AUC was 407

----------
target_system: EphA2 (UniProt Ref: P29317) (Homo sapiens, UniProt P29317)
Sequence (P29317 24-976): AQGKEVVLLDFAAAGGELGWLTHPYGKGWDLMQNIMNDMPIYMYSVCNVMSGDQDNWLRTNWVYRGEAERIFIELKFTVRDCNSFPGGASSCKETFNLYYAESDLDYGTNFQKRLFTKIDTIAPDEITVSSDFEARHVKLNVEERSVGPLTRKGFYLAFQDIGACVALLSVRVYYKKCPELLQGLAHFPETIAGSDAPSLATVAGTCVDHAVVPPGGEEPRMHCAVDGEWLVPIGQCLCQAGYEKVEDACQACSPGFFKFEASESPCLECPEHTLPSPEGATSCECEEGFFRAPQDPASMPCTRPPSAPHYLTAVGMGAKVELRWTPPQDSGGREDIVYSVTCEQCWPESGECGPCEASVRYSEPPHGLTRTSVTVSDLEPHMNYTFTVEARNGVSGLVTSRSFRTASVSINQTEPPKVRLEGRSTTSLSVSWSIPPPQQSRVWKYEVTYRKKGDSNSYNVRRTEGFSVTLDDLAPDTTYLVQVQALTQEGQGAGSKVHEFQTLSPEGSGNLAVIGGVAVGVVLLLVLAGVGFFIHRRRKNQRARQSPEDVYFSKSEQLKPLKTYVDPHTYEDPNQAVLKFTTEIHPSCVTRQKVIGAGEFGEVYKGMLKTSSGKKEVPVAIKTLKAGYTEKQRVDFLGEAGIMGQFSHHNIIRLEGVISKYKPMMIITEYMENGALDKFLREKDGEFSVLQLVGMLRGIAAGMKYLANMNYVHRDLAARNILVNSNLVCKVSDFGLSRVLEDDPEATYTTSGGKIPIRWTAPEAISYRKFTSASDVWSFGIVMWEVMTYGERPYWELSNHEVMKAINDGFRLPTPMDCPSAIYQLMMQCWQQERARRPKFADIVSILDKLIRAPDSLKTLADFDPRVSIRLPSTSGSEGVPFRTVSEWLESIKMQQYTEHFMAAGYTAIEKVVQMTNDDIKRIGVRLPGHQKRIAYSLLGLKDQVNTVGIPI
assay_notes: EphA2 assay (Reaction Biology HotSpot radioactive kinase assay)
measurement_conditions: ATP 10 μM; read-out: EphA2 potency IC50
pIC50: −log10 of the molar value.
result_type: pIC50

# annotated cases, reported pIC50 shown
input_smiles: CCc1n[nH]c2nc(-c3cc(NC(=O)c4cc(OCCN5CCOCC5)cc(C(F)(F)F)c4)ccc3C)ccc12
pIC50: 7.60 to 11.00

input_smiles: CCc1n[nH]c2nc(-c3cc(NC(=O)c4cc(OCCN5CCOCC5)cc(C5CC5)c4)cnc3C)ccc12
pIC50: 7.60 to 11.00

input_smiles: Cc1ccc(NC(=O)c2cccc(C(F)(F)F)c2)cc1-c1ccc2c(CO)n[nH]c2n1
pIC50: 7.60 to 11.00

# context switch: different molecule, same pIC50
Entry under test: "COc1cc(OC)cc(C(=O)Nc2ccc(C)c(-c3ccc4c([C@@H](C)O)n[nH]c4n3)c2)c1" . Its pIC50 was 7.30 to 7.60

----------
target_system: EphA4 (UniProt Ref: P54764) (Homo sapiens, UniProt P54764)
Sequence (P54764 20-986): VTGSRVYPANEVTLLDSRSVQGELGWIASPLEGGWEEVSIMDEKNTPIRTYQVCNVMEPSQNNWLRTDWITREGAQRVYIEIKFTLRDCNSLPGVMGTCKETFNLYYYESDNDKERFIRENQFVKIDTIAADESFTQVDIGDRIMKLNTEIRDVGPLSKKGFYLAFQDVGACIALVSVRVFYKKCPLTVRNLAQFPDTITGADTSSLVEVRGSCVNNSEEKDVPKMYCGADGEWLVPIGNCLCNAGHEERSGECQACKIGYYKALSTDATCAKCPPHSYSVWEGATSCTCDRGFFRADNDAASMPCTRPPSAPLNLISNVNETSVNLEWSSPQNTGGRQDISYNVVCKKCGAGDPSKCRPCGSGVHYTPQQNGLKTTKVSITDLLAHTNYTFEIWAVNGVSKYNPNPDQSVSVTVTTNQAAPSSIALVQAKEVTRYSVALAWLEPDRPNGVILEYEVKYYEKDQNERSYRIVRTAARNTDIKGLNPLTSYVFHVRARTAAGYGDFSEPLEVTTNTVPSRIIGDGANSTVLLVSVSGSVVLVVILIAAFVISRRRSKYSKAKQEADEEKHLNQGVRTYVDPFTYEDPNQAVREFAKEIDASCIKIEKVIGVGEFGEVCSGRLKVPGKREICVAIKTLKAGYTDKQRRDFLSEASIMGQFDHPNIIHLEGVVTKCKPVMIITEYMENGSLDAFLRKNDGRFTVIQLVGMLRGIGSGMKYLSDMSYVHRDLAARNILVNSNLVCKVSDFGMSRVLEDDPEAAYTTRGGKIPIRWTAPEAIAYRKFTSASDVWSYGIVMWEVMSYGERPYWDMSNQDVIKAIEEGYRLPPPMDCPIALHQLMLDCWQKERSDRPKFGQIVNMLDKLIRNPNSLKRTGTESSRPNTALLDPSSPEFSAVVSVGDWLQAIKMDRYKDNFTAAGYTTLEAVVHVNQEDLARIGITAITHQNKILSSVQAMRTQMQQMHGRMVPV
assay_notes: EphA4 assay (Reaction Biology HotSpot radioactive kinase assay)
measurement_conditions: EphA4 potency; ATP 10 μM
Provide the reported IC50 of each item.

# annotated cases, reported IC50 shown
compound: COc1cc(OC)cc(C(=O)Nc2ccc(C)c(-c3ccc4c([C@H](C)O)n[nH]c4n3)c2)c1
IC50: 50 to 100 nM
//
compound: COc1cc(OC)cc(C(=O)Nc2ccc(C)c(-c3ccc4c(C5(O)CC5)n[nH]c4n3)c2)c1
IC50: > 100 nM
//
compound: Cc1ccc(NC(=O)c2cccc(C(F)(F)F)c2)cc1-c1ccc2c([C@H](C)O)n[nH]c2n1
IC50: 25 to 50 nM

Give one value of IC50 per listed compound.
1. Cc1ccc(NC(=O)c2cccc(C(F)(F)F)c2)cc1-c1ccc2c(C(O)CN3CCOCC3)n[nH]c2n1 (centres unmarked)
2. COc1cc(OC)cc(C(=O)Nc2ccc(C)c(-c3ccc4c(C(C)O)n[nH]c4n3)c2)c1 (centres unmarked)

0.01 to 25 nM
50 to 100 nM

----------
target_system: Recombinant EphB2 (Homo sapiens)
Construct: purchased Carna 08-129
Sequence (P29323 19-986 isoform P29323-2 limits assumed): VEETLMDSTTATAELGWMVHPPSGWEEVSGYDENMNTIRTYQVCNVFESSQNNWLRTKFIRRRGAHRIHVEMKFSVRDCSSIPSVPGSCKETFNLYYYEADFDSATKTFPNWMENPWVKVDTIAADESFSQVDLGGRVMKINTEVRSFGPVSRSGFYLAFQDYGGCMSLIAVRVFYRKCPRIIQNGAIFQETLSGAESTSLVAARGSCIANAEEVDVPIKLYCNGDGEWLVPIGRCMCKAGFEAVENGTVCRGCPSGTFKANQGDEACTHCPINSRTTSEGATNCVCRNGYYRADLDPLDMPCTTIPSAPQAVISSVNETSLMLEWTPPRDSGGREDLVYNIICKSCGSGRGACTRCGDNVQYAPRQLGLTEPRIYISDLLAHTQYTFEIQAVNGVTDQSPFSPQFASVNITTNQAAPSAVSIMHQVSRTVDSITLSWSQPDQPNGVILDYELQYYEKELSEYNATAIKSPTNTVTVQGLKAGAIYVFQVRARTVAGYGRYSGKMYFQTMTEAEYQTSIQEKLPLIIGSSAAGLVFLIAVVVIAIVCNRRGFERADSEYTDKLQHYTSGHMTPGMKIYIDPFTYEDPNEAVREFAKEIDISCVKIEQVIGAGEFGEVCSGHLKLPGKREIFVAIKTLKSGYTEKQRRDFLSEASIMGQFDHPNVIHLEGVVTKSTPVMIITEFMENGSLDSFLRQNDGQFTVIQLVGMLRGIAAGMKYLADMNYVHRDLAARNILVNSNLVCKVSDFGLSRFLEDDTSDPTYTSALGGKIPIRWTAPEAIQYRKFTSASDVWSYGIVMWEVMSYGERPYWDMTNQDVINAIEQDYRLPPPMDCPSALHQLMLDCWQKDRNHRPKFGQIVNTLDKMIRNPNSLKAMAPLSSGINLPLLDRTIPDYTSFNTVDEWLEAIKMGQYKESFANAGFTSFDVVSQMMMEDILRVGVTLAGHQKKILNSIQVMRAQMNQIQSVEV
assay_notes: EphB2 assay (33P incorporation into poly GT, filter plate)
Type: biochemical
measurement_conditions: read-out: EphB2 potency IC50
Provide the reported IC50 of each item.

# annotated cases, reported IC50 shown
compound: Cc1cc(C)cc(C(=O)Nc2ccc(C)c(-c3ccc4c(CO)n[nH]c4n3)c2)c1 [Compound 16]
IC50: 0.01 to 25 nM

compound: Cc1ccc(C(=O)Nc2cccc(C(F)(F)F)c2)cc1-c1ccc2c(C(O)CN3CCOCC3)n[nH]c2n1 (stereo not drawn) [Compound 5]
IC50: > 100 nM

compound: Cc1cc(C)cc(C(=O)Nc2ccc(C)c(-c3ccc4c(C(O)CN5CCOCC5)n[nH]c4n3)c2)c1 (stereo not drawn) [Compound 7]
IC50: 0.01 to 25 nM

compound: CCc1n[nH]c2nc(-c3cc(NC(=O)c4cc(OCCN5CCOCC5)cc(C(F)(F)F)c4)ccc3C)ccc12 [Compound 36]
IC50: > 100 nM

compound: COc1cc(OC)cc(C(=O)Nc2ccc(C)c(-c3ccc4c(C(O)CN5CCOCC5)n[nH]c4n3)c2)c1 (stereo not drawn) [Compound 4]
IC50: 50 to 100 nM

Give one value of IC50 per listed compound.
1. CCc1n[nH]c2nc(-c3cc(NC(=O)c4cc(C)cc(OCCN5CCOCC5)c4)ccc3C)ccc12 [Compound 20]
2. Cc1ccc(NC(=O)c2cccc(C(F)(F)F)c2)cc1-c1cc(C)c2c(N)n[nH]c2n1 [Compound A]
3. COc1cc(OC)cc(C(=O)Nc2ccc(C)c(-c3ccc4c(C)n[nH]c4n3)c2)c1 [Compound 11]
4. Cc1cccc(C(=O)Nc2ccc(C)c(-c3ccc4c(C(O)CN5CCOCC5)n[nH]c4n3)c2)c1 (stereo not drawn) [Compound 3]
5. COc1cc(OC)cc(C(=O)Nc2cnc(C)c(-c3ccc4c(C)n[nH]c4n3)c2)c1 [Compound 17]

0.01 to 25 nM
0.01 to 25 nM
0.01 to 25 nM
50 to 100 nM
25 to 50 nM

Give one value of IC50 per listed compound.
1. Cc1cc(OCCN2CCOCC2)cc(C(=O)Nc2ccc(C)c(-c3ccc4c(C(C)O)n[nH]c4n3)c2)c1 (stereo not drawn) [Compound 28]
2. Cc1ccc(NC(=O)c2cccc(C(F)(F)F)c2)cc1-c1ccc2c(C(O)CN3CCOCC3)n[nH]c2n1 (stereo not drawn) [Compound 2]

1: 0.01 to 25 nM; 2: 25 to 50 nM

Give one value of IC50 per listed compound.
1. COc1cc(OC)cc(C(=O)Nc2cnc(C)c(-c3ccc4c(C5CC5)n[nH]c4n3)c2)c1 [Compound 34]
2. CCc1n[nH]c2nc(-c3cc(NC(=O)c4cc(C)cc(C)c4)cnc3C)ccc12 [Compound 50]
3. CCc1n[nH]c2nc(-c3cc(NC(=O)c4cc(OC)cc(OCCN5CCOCC5)c4)cnc3C)ccc12 [Compound 40]

["0.01 to 25 nM", "> 100 nM", "> 100 nM"]

Give one value of IC50 per listed compound.
1. Cc1ccc(NC(=O)c2cccc(C(F)(F)F)c2)cc1-c1ccc2c(C(C)O)n[nH]c2n1 (stereo not drawn) [Compound 35]
2. CCc1n[nH]c2nc(-c3cc(NC(=O)c4cccc(C(F)(F)F)c4)cnc3C)ccc12 [Compound 42]
3. CCc1n[nH]c2nc(-c3cc(NC(=O)c4cc(OC)cc(OCCCN)c4)ccc3C)ccc12 [Compound 45]

1. 50 to 100 nM
2. > 100 nM
3. 0.01 to 25 nM

----------
Provide the reported AUC of each item.
assay_notes: Pharmacokinetics in mice (exposure, AUC)
Format: in vivo
measurement_conditions: male, CD1, plasma; mouse, 30 mg/kg, po
Numbers only, in ng·h/mL.

# annotated cases, reported AUC shown
input_smiles: COc1cc(OC)cc(C(=O)Nc2ccc(C)c(-c3ccc4c([C@H](C)O)n[nH]c4n3)c2)c1
value_unit: ng·h/mL
AUC: 39000
//
input_smiles: Cc1ccc(NC(=O)c2cccc(C(F)(F)F)c2)cc1-c1cc(C)c2c(N)n[nH]c2n1
value_unit: ng·h/mL
AUC: 1130

# context switch: different molecule, same AUC
Entry under test: "Cc1ccc(NC(=O)c2cccc(C(F)(F)F)c2)cc1-c1ccc2c([C@H](C)O)n[nH]c2n1" . Its AUC was 31600

----------
target_system: Recombinant EphA7 (Homo sapiens)
Construct: purchased Carna 08-126
Sequence (Q15375 579-998 limits assumed): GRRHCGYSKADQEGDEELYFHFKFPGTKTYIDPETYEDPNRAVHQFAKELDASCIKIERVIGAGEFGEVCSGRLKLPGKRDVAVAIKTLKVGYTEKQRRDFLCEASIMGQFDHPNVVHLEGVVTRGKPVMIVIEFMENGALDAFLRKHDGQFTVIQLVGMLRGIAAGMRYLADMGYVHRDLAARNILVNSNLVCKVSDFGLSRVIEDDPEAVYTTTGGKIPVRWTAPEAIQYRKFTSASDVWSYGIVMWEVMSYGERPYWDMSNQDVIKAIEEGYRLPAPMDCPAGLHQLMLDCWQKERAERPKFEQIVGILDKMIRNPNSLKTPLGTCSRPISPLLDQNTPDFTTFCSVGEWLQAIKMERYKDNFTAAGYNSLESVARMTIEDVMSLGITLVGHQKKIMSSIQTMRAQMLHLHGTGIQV
assay_notes: EphA7 assay (33P incorporation into poly GT, filter plate)
Type: biochemical
measurement_conditions: EphA7 potency; 0.15 μM ATP; read-out: IC50
result_type: IC50

compound: CCc1n[nH]c2nc(-c3cc(NC(=O)c4cc(OC)cc(OC)c4)cnc3C)ccc12
result_type: IC50
result: > 1000 nM

compound: CCc1n[nH]c2nc(-c3cc(NC(=O)c4cc(C)cc(OCCN5CCOCC5)c4)ccc3C)ccc12
result_type: IC50
result: 500 to 1000 nM

compound: CCc1n[nH]c2nc(-c3cc(NC(=O)c4cc(OC)cc(OCCCN)c4)ccc3C)ccc12
result_type: IC50
result: 250 to 500 nM

compound: COc1cc(OC)cc(C(=O)Nc2ccc(C)c(-c3ccc4c(C5(O)CC5)n[nH]c4n3)c2)c1
result_type: IC50
result: > 1000 nM

compound: Cc1ccc(NC(=O)c2cccc(N(C)C)c2)cc1-c1ccc2c(C(O)CN3CCOCC3)n[nH]c2n1 (stereo not drawn)
result_type: IC50
result: > 1000 nM

Give one value of IC50 per listed compound.
1. Cc1ccc(NC(=O)c2cccc(C(F)(F)F)c2)cc1-c1ccc2c([C@H](C)O)n[nH]c2n1
2. CCc1n[nH]c2nc(-c3cc(NC(=O)c4cc(OC)cc(OCCCN)c4)cnc3C)ccc12
3. CCc1n[nH]c2nc(-c3cc(NC(=O)c4cc(OC)cc(OCCN5CCOCC5)c4)cnc3C)ccc12
4. CCc1n[nH]c2nc(-c3cc(NC(=O)c4cc(OCCN5CCOCC5)cc(C(F)(F)F)c4)ccc3C)ccc12
5. CCc1n[nH]c2nc(-c3cc(NC(=O)c4cccc(C(F)(F)F)c4)cnc3C)ccc12
6. CCc1n[nH]c2nc(-c3cc(NC(=O)c4cc(C)cc(C)c4)cnc3C)ccc12
7. CCc1n[nH]c2nc(-c3cc(NC(=O)c4cc(C)cc(OCCN)c4)ccc3C)ccc12

["500 to 1000 nM", "500 to 1000 nM", "> 1000 nM", "500 to 1000 nM", "> 1000 nM", "500 to 1000 nM", "250 to 500 nM"]

Give one value of IC50 per listed compound.
1. COc1cc(OC)cc(C(=O)Nc2ccc(C)c(-c3ccc4c(C)n[nH]c4n3)c2)c1
2. Cc1ccc(C(=O)Nc2cccc(C(F)(F)F)c2)cc1-c1ccc2c(C(O)CN3CCOCC3)n[nH]c2n1 (stereo not drawn)
3. Cc1ccc(NC(=O)c2cccc(C(F)(F)F)c2)cc1-c1ccc2c([C@@H](C)O)n[nH]c2n1
4. Cc1ccc(NC(=O)c2cccc(C(F)(F)F)c2)cc1-c1ccc2c(C(C)O)n[nH]c2n1 (stereo not drawn)

["> 1000 nM", "250 to 500 nM", "> 1000 nM", "> 1000 nM"]

Give one value of IC50 per listed compound.
1. COc1cc(OC)cc(C(=O)Nc2ccc(C)c(-c3ccc4c(C(C)O)n[nH]c4n3)c2)c1 (stereo not drawn)
2. Cc1cc(C)cc(C(=O)Nc2ccc(C)c(-c3ccc4c(CO)n[nH]c4n3)c2)c1
3. CCc1n[nH]c2nc(-c3cc(NC(=O)c4cc(OC)cc(C5CC5)c4)cnc3C)ccc12
4. COc1cc(OC)cc(C(=O)Nc2cnc(C)c(-c3ccc4c(C5CC5)n[nH]c4n3)c2)c1

> 1000 nM
> 1000 nM
250 to 500 nM
> 1000 nM
